# System: HeLa (cervical)
# assayDetails: 72-hour IC50 toward HeLa cancer cell line
# Type: cell-based
# measurementSetup: Homo sapiens
pIC50: −log10 of the molar value.
The following compounds are listed with their measured pIC50 values.
observable: pIC50

[
  {
    "compound": "C=C1C[C@]23C[C@@]1(O)CC[C@H]2[C@@]12C=CC(=O)C(C)(C(=O)O1)[C@H]2[C@@H]3C(=O)OC [GA-4]",
    "studyTarget": "HeLa (cervical)",
    "observable": "pIC50",
    "experimentalResult": 5.94
  },
  {
    "compound": "COC(=O)[C@H]1[C@@H]2C3(C)C(=O)C=C[C@@]2(OC3=O)[C@@H]2CC[C@@]3(CBr)C[C@]21CC3=O [GA-81]",
    "studyTarget": "HeLa (cervical)",
    "observable": "pIC50",
    "experimentalResult": 5.31
  }
]

The values you see were collected from patent US10800730B2.
